// reported pIC50 per item
Target: wild type c-kit (Homo sapiens (Human))
Sequence (P10721 26-976): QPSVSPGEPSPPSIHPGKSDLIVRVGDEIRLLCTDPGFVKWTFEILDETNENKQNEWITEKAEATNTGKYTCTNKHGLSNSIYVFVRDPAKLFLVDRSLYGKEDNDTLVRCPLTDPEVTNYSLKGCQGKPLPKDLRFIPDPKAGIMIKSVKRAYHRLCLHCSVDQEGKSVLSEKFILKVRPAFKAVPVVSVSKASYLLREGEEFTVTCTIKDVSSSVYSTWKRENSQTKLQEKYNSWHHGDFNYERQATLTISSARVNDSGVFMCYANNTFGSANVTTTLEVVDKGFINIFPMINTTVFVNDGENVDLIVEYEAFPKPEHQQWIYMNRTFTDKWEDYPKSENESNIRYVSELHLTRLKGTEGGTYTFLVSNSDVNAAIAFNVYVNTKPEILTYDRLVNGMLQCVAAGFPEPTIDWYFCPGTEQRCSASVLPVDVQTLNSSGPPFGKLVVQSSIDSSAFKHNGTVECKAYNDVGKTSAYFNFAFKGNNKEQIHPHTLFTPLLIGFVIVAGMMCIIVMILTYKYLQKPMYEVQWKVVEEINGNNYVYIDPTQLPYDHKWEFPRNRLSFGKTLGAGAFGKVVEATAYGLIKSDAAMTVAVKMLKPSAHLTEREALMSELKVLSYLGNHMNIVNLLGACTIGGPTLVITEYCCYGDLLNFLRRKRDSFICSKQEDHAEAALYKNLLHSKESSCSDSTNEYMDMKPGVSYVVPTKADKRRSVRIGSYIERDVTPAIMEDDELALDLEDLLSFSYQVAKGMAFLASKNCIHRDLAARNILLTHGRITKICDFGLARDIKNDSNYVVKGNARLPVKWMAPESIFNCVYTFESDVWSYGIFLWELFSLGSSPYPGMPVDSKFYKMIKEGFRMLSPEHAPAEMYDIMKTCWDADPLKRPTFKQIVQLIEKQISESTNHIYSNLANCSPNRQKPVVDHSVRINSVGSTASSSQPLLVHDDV
Experiment: PathScan phospho c-kit (Tyr719) sandwich ELISA in SCF-stimulated M-07e cells (pKIT assay)
Assay type: cell-based
Conditions: ELISA assay (values not marked *)
Reminder that pIC50 is minus the log10 of a molar concentration.

Guide cases for pIC50, answers given:
Cc1ccc(-c2nnn(C)n2)cc1NC(=O)c1cnn2ccc(-c3cnn(CCCS(C)(=N)=O)c3)cc12 (stereo not shown) | 7.59
Cc1ccc(-c2nnn([C@H]3C[C@@H](C(F)(F)F)C3)n2)cc1NC(=O)c1cnn2ccc(NCCO)cc12 | 8.39
Cc1ccc(-c2nnn(C3CN(S(=O)(=O)C4CC4)C3)n2)cc1NC(=O)c1cnn2ccccc12 | 8.31
CCn1nnc(-c2ccc(Cl)c(NC(=O)c3cnn4ccc(-c5c(C)nn(C[C@H](C)O)c5C)cc34)c2)n1 | 9.40
Cc1nn(C(CO)CO)c(C)c1-c1ccn2ncc(C(=O)Nc3cc(-c4nnn(C5CC5)n4)ccc3Cl)c2c1 | 9.52

For this molecule ( Cc1cc(C)c(-c2nnn(CC3CC3(F)F)n2)cc1NC(=O)c1cnn2ccccc12 (stereo not shown) ), measured pIC50 is 8.19

// field: pIC50; key: COCCNc1ccn2ncc(C(=O)Nc3cc(-c4nnn(C5CN(C(=O)OC)C5)n4)c(F)cc3C)c2c1 ; value = 7.50

Ref: patent US20240262826A1
